All values here come from patent US20140154702A1.

# Test system: KB cells
# assay.notes: Inhibition of non-FR-specific activity (cytotoxicity) of EC0531 by co-administered inhibitors, KB cells
# Assay type: cell-based
# details: read-out: IC50 of inhibition of non-FR-specific activity of EC0531; KB cells; co-administered with EC0531 (1 μM) and folic acid (100 μM), 2 hours, 72 hour chase
Measured IC50 by item
Report the value in µM with no unit label.

INSERT INTO measurements (compound, value_reported) VALUES
  ('O=C(O)CCN1C(=O)C=CC1=O [NCEM, N-(2-carboxyethyl)maleimide]', 17);

Now examine the next entry.
Q) // lookup IC50 for "O=C(O)c1cc(/N=N/c2ccc(S(=O)(=O)Nc3ccccn3)cc2)ccc1O"
A) 170

----------
# Tested on: KB cells
# assay.notes: Inhibition of non-FR-specific activity (cytotoxicity) of EC0531 by co-administered inhibitors, KB cells
# Format: cell-based
# details: read-out: IC50 of inhibition of non-FR-specific activity of EC0531
recorded.metric: pIC50
Note on pIC50: it is the negative log10 of concentration, concentration in mol/L.

Q) // lookup pIC50 for "O=C(O)c1cc(SSc2ccc([N+](=O)[O-])c(C(=O)O)c2)ccc1[N+](=O)[O-]"
A) 5.34
